- subject of test: CDK4/CyclinD1 (Homo sapiens, UniProt P11802)
- Sequence (P11802 whole entry, species assumed): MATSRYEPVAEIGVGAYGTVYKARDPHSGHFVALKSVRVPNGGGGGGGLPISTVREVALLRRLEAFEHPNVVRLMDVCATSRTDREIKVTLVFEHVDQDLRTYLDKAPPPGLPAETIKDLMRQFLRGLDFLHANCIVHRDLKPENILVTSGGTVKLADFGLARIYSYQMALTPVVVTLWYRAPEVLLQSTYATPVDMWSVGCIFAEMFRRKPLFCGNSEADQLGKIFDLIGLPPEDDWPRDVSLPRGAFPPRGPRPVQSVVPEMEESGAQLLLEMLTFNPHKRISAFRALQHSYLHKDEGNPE
- Sequence (P24385 whole entry partner, species assumed): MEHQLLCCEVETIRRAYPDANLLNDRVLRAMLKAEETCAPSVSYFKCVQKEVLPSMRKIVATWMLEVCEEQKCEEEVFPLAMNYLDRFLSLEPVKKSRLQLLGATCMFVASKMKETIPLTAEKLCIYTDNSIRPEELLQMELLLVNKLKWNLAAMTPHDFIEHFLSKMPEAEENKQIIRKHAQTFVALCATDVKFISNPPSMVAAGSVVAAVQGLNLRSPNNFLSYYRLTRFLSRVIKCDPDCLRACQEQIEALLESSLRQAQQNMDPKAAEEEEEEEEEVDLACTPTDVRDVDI
- test description: ADP-Glo kinase assay, CDK4
- Assay type: biochemical
- condition: 16.3 nM CDK4/CyclinD1, 200 µM ATP (Km), 0.2 mg/mL DYRKtide, 120 min; read-out: inhibitory activity (IC50, nM) CDK4
Reported values of IC50 for individual entries
property label: IC50

>>> print(df.to_string())
                            chemical_smiles                           subject_of_test     result
0  Cc1csc([C@H](C)Nc2ncc3c(n2)CN(C(=O)N[C@H](CN(C)C)c2ccccc2)[C@H](C)C3)n1  CDK4/CyclinD1 (Homo sapiens, UniProt P11802)  > 1000 nM
1  C[C@H](Nc1ncc2c(n1)CN(C(=O)N[C@H](CN(C)C)c1ccccc1)[C@H](C)C2)c1nc(C2CC2)cs1  CDK4/CyclinD1 (Homo sapiens, UniProt P11802)  > 1000 nM

====

- subject of test: CDK1/CyclinB (Homo sapiens, UniProt P06493)
- Sequence (P06493 whole entry, species assumed): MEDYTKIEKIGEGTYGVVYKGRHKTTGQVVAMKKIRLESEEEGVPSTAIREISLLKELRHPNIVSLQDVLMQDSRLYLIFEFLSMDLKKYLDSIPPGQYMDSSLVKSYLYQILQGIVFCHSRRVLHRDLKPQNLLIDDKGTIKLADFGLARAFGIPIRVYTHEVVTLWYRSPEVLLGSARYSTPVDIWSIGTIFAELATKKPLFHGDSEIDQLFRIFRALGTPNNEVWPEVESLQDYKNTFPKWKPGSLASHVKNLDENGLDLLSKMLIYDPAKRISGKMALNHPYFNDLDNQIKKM
- Sequence (P14635 whole entry partner, species assumed): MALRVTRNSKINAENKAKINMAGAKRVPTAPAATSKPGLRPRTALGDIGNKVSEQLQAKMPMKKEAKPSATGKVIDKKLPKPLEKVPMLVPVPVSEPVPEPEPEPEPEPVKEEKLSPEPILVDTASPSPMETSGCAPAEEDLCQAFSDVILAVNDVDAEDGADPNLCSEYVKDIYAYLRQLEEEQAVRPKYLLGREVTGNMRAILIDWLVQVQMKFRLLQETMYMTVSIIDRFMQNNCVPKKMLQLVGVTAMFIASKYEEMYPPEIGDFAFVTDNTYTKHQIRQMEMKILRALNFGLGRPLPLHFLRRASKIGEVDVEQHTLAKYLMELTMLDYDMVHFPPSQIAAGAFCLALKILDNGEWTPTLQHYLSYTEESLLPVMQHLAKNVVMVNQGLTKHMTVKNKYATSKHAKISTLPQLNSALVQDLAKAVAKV
- test description: ADP-Glo kinase assay, CDK1
- Type: biochemical
- condition: 16.5 nM CDK1/CyclinB, 20 µM ATP (Km), 0.1 mg/mL histone H1, 120 min; read-out: inhibitory activity (IC50, nM) CDK1
Reported values of IC50 for individual entries
property label: IC50

>>> print(df.to_string())
                            chemical_smiles  property_label     result
0  C[C@H](Nc1ncc2c(n1)CN(C(=O)N[C@H](CN(C)C)c1ccccc1)[C@H](C)C2)c1nc(C2CC2)cs1            IC50  > 1000 nM
1  Cc1csc([C@H](C)Nc2ncc3c(n2)CN(C(=O)N[C@H](CN(C)C)c2ccccc2)[C@H](C)C3)n1            IC50  > 1000 nM

====

- subject of test: CDK2/CyclinE1 (Homo sapiens, UniProt P24941)
- test description: ADP-Glo kinase assay, CDK2
- Type: biochemical
- condition: 1 nM CDK2/CyclinE1, 15 µM ATP (Km), 0.1 mg/mL histone H1, 60 min; read-out: inhibitory activity (IC50, nM) CDK2
Reported values of IC50 for individual entries
property label: IC50

In [3]: df
Out[3]:
                            chemical_smiles  result
0  Cc1csc([C@H](C)Nc2ncc3c(n2)CN(C(=O)N[C@H](CN(C)C)c2ccccc2)[C@H](C)C3)n1  711 nM
1  C[C@H](Nc1ncc2c(n1)CN(C(=O)N[C@H](CN(C)C)c1ccccc1)[C@H](C)C2)c1nc(C2CC2)cs1  571 nM
